Catalogue of Ki values
- Test Target: Sushi domains (SD1/2) protein of the GABAB1a (GB1a) subunit, recombinant
- Sequence (Q9Z0U4 29-158): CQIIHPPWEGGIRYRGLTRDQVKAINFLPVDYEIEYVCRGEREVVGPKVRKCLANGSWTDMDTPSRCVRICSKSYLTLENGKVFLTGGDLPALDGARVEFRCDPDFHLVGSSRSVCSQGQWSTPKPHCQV
- Assay Text: FP competition
Non-standard residues stand in square brackets, D forms with d. NMeR = CN[C@@H](CCCNC(=N)N)C(=O)O
Respond with the bare value in nM.

Ac-EDDSDVYWGGADTD-NH2 : 3600
Ac-PWAIVWGPTVSREA-NH2 : 572
Ac-EDDSDVWWGGYDTD-NH2 : 255

Query binder follows.
-- ask Which Ki value belongs to Ac-PWAIVWGPTVS[NMeR]ED-NH2 (SMILES CC[C@H](C)[C@H](NC(=O)[C@H](C)NC(=O)[C@H](Cc1c[nH]c2ccccc12)NC(=O)[C@@H]1CCCN1C(C)=O)C(=O)N[C@H](C(=O)N[C@@H](Cc1c[nH]c2ccccc12)C(=O)NCC(=O)N1CCC[C@H]1C(=O)N[C@H](C(=O)N[C@H](C(=O)N[C@@H](CO)C(=O)N(C)[C@@H](CCCNC(=N)N)C(=O)N[C@@H](CCC(=O)O)C(=O)N[C@@H](CC(=O)O)C(N)=O)C(C)C)[C@@H](C)O)C(C)C) […(N-Me-R)ED] ?
-- reply 502
